Test system: Plasmodium berghei
Test: Screen against P. berghei liver stage (PbLuc), transformed with Luciferase, at 10uM
Format: functional, HepG2
Details: tested at 10 uM
Among all 69,000 compounds or so, about 8,600 (12%) showed an effect of 50% or more. Many of the other results were omitted from the sample, so strong results are more common in it than they were.
ASSAY METRIC: INHIBITION (%)
The reply should contain only the number, in %.

compound="COc1ccc(C(C(=O)O)N2CCC(Cn3cccn3)CC2)c(OC)n1 (stereo not given)" assayed_system="Plasmodium berghei" display_unit=% value=-40
compound="Cc1ccccc1C(=O)NC(C)c1cnn(C)c1 (stereo not given)" assayed_system="Plasmodium berghei" display_unit=% value=40.8
compound="CCc1nc(C(=O)N2CC(C(C)C)Nc3ccccc32)c[nH]1 (stereo not given)" assayed_system="Plasmodium berghei" display_unit=% value=3.13
compound=Cn1cccc1C(=O)N1CCC2(CC1)CN(c1ccccc1)C(=O)CO2 assayed_system="Plasmodium berghei" display_unit=% value=33.4

Then there is this compound:
For the compound O=C(c1cnccn1)N1CCC(CN2CCOCC2)CC1 , give its measured INHIBITION value. 30

---

Test system: Plasmodium berghei
Test: Screen against P. berghei liver stage (PbLuc), transformed with Luciferase, at 10uM
Format: functional, HepG2
Conditions: tested at 10 uM
The campaign covered roughly 69,000 compounds. About 8,600 (12%) showed an effect of 50% or more. Shown is part of a subset that was picked to be rich in strong results.
ASSAY METRIC: INHIBITION

compound="CCC(CC)c1cc(CNC(=O)N2CCCC(N(C)C)C2)on1 (centres undefined)" assay_metric=INHIBITION value=-34%
compound="COCc1cc(N(C)CCC(O)c2ccccc2)n2nccc2n1 (centres undefined)" assay_metric=INHIBITION value=-27.3%
compound="COc1ccc(C(C)N2CCC(CNC(C)=O)CC2)cc1Cl (centres undefined)" assay_metric=INHIBITION value=70.3%
compound=Cn1ccc(CN2CCCC23CCNCC3)n1 assay_metric=INHIBITION value=-12.1%

For the compound Cn1ccc(CN2CCCC23CCN(Cc2nccn2C)CC3)n1 , give its measured INHIBITION value. 27.6%

For the compound Cc1cccc(C)c1NC(=O)c1cccc(N(C)S(C)(=O)=O)c1C , give its measured INHIBITION value. 16.1%

---

Test system: Plasmodium berghei
Assay: Screen against P. berghei liver stage (PbLuc), transformed with Luciferase, at 10uM
Type: functional, HepG2
Conditions: tested at 10 uM
Screen size: about 69,000 compounds; about 8,600 (12%) showed an effect of 50% or more. What follows is part of a selection rich in strong results, with near analogues and random picks from the rest.
So basically: is INHIBITION under 20%? Then 1. Not under? Then -1.

# example entries with known answers
molecule="CN(C)C(=O)CC1CC2(CCNCC2)c2cc(F)ccc21 (stereo not given)" group_label=-1
molecule=Cn1cncc1CN1CCC2(CCCN2c2ncccn2)CC1 group_label=1
molecule=CC(C)NC(=O)c1ccc2c(c1)nc1n2CCN(Cc2ccco2)C1 group_label=1
molecule="Cc1cc(C(=O)NCc2ccc(F)cc2)c2c(C3CCNC3)noc2n1 (stereo not given)" group_label=-1
molecule=CC(C)[C@H]1CN(Cc2c[nH]cn2)C[C@@H]1NC(=O)CC1CCC1 group_label=-1

For CNC(=O)N1CCC2(CC1)CN(C)Cc1cc(F)ccc12 , is the recorded INHIBITION below the cut-off of 20%? -1

For CN(C)c1nccnc1C1CCN(C2CCCCC2O)CC1 (stereo not given) , is the recorded INHIBITION below the cut-off of 20%? 1

For NC(=O)CC1c2cccnc2C(=O)N1Cc1ccccc1 (stereo not given) , is the recorded INHIBITION below the cut-off of 20%? 1

For O=S(=O)(NCC1CCN(c2cnccn2)CC1)c1cccs1 , is the recorded INHIBITION below the cut-off of 20%? -1

For O=C(O)c1csc(NCCc2ccccc2)n1 , is the recorded INHIBITION below the cut-off of 20%? -1
